Data provenance: PubChem BioAssay (NCI)

System: A549/ATCC NSCLC
Assay: NCI-60 one-dose screen, 48 h
Conditions: 10 µM unless noted
This is part of a sample that, as a whole, favours compounds with a hit. Of some 83,000 tested, about 20% had one in any assay. Calls of active or inactive are those of the source. Rule for the calls: active = growth percent below 10; inactive = the rest.
Outcome codes: true (1) (active), false (0) (inactive)

compound: CN(C)c1ccc(C(=C2C=CC(=[N+](C)C)C=C2)c2ccc(N(C)C)cc2)cc1 (tested in a mixture with another compound)
classification: true (1)
--
compound: CN(C)CCOc1ccc2c(c1)C(=O)/C(=C\c1ncc([N+](=O)[O-])n1C)C2
classification: true (1)
--
compound: CC(=O)ON=C1C=CC(=C(C#N)c2ccccc2)C=C1
classification: false (0)
--
compound: O=C1OCc2cccc3cccc1c23
classification: false (0)
--
compound: O=Nc1ccccc1N=O
classification: false (0)
--
compound: CCCCCCCCCCCCCCCCOP(=O)([O-])OCC[N+](C)(C)C
classification: false (0)
--
compound: Cc1ccnc(NC(c2ccccc2)c2ccc3cccnc3c2O)c1 (stereo unspecified)
classification: false (0)
--
compound: NC1=CC(=O)c2ccccc2C1=O
classification: false (0)
--
compound: CCOC(=O)/C=C/c1ccc([N+](=O)[O-])o1
classification: false (0)
--
compound: O=C(Nc1ccccc1)c1cc(Cl)ccc1O
classification: false (0)
--
compound: CCOC(=O)/C(=C\c1ccc(-c2ccccc2)cc1)C(C)=O
classification: false (0)
